Provenance of the data: PubChem BioAssay (NCATS)

- assay-info: qHTS profiling for inhibitors of Plasmodium falciparum proliferation (AID 504749);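 also: 0% = DMSO vehicle and full inhibition = artemisinin control; nearly all actives have a fitted effect of over 60% in size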
- recorded-conditions: P. falciparum in erythrocytes, SYBR Green DNA, 72 h; at 28.7 µM (top of the series); parasite line B
Records with an inconclusive call do not appear.
Give measured activity, negative = inhibition for each item. Keep answers brief.
Numbers only here, please. The scale is %.

Would you mind telling me what activity, negative = inhibition value was observed for O=C1c2ccccc2-c2n[nH]c3cccc1c23 ?
-1.75

Same thing, different compound: CC(S)C(=O)NCC(=O)O (stereo not drawn)
13.7

For C[Se]CCC(N)C(=O)O (stereo not drawn) then?
-13.4

---

- assay-info: Quantitative High-Throughput drug screen in 47 multiple myeloma cell lines against the NCATS MIPE library collection: XG1_PLB cell viability assay (AID 1919866); also: nearly all actives have a fitted effect of over 35% in size
- recorded-conditions: CellTiter-Glo ATP, 48 h; series mostly up to 45.8 µM
Records with an inconclusive call do not appear. Calls of active or inactive are those of the source. Calls follow the shape of the dose curve; as a rule, active = well fitted cell-killing curve with a large enough effect; inconclusive = small, poorly fitted or top-dose-only effect, or effect the other way; inactive = no such curve, though single readings can be large or run the other way.
Allowed answers: Y (active), N (inactive)

What outcome does the record of this test show for CC1(C)C(=O)N(CCN2CCC(C(=O)c3ccc(F)cc3)CC2)c2ccccc21 ?
Y

Could you do the same for Cc1cc2c(s1)Nc1ccccc1N=C2N1CCN(C)CC1 , please?
N

Now the compound NC(=NCc1ccccc1)NC(=O)c1nc(Cl)c(N)nc1N
Y

---

- assay-info: Quantitative High-Throughput drug screen in 47 multiple myeloma cell lines against the NCATS MIPE library collection: INA6_PLB cell viability assay (AID 1918965; also: nearly all actives have a fitted effect of over 55% in size)
- recorded-conditions: INA6 myeloma viability, CellTiter-Glo ATP luminescence, 48 h; series mostly up to 45.8 µM
Results filed as inconclusive are left out. Activity calls are given as the source filed them. Calls follow the shape of the dose curve; as a rule, active = well fitted cell-killing curve with a large enough effect; inconclusive = small, poorly fitted or top-dose-only effect, or effect the other way; inactive = no such curve, though single readings can be large or run the other way.
// classify into YES (active), NO (inactive)

State the result this test recorded for O=C(O)c1cccnc1Nc1cccc(C(F)(F)F)c1 .
NO

Could you do the same for O=Nc1c(-c2c(O)[nH]c3cc(Br)ccc23)[nH]c2ccccc12 , please?
YES

And what about the molecule Cc1nc(Nc2ncc(C(=O)Nc3c(C)cccc3Cl)s2)cc(N2CCN(CCO)CC2)n1 ?
YES

Likewise for CS(=O)(=O)OCCCCOS(C)(=O)=O ?
NO

Note, next up: O=C(O)CCNC(=O)c1ccc(N=Nc2ccc(O)c(C(=O)O)c2)cc1
NO

Further, for Oc1ccc(-c2nc(-c3ccc(F)cc3)c(-c3ccncc3)[nH]2)cc1 ?
YES

And for CCN(CC)C(=S)SSC(=S)N(CC)CC ?
YES

# repeat for Cc1cc(Cl)ccc1OCCCC(=O)NO
YES

Then COC(=O)C1=C(C)NC(C)=C(C(=O)OC(C)C)C1c1cccc2nonc12 (configuration not stated) ?
YES

Then CC(C)c1ccc2oc3nc(N)c(C(=O)O)cc3c(=O)c2c1 ?
NO

Another molecule to look at: COCCCOc1ccnc(CS(=O)c2nc3ccccc3[nH]2)c1C (configuration not stated)
NO

Entry to check: CC(=O)NC[C@H]1CN(c2ccc(N3CCOCC3)c(F)c2)C(=O)O1
NO

---

- assay-info: qHTS Screen of the MIPE 4.0 Collection Against Ewings Sarcoma (TC71) (AID 1259253); also: nearly all actives have a fitted effect of over 40% in size
- recorded-conditions: TC71 Ewing sarcoma viability, CellTiter-Glo, 48 h; series mostly up to 45.8 µM
- Protocol: There is a large unmet medical need for treatments for Ewing sarcoma, a pediatric sarcoma. […] Using the NCATS developed oncology compound library called the Mechanism of Interrogation Plate (MIPE), four Ewing sarcoma cell lines were evaluated (TC32, TC71, RDES, EW8). Compounds, in a 12-point titration series, were incubated with cells for 48 hours and the read out was cell viability (CellTiter-Glo from Promega). […]
Inconclusive results are not listed. Active and inactive are the calls of the source. Calls follow the shape of the dose curve; as a rule, active = well fitted inhibition curve with a large enough effect; inconclusive = small, poorly fitted or top-dose-only effect; inactive = no such curve, though single readings can be large or run the other way. Non-standard residues stand in square brackets, D forms with d. Residues, ends and D or L forms follow the SMILES beside them. *: point of attachment. Sta = CC(C)C[C@H](N)[C@@H](O)CC(=O)O; Isovaleryl = CC(C)CC(=O)*
Hi! Could you answer with just one of these? active, inactive

Which outcome did this test record for the molecule COc1cc2c(cc1OC)C1CC(=O)C(CC(C)C)CN1CC2 (configuration not stated) ?
inactive

Another molecule to check: CCOC(=O)C1=C[C@@H](OC(CC)CC)[C@H](NC(C)=O)[C@@H](N)C1
inactive

Same lookup for CCCc1cc(=O)[nH]c(=S)[nH]1 , please.
inactive

Check COC(=O)C1=C(C)NC(C)=C(C(=O)OCCCN2CCC(c3ccccc3)(c3ccccc3)CC2)C1c1cccc([N+](=O)[O-])c1 (configuration not stated) too.
active

// same read-out, input: C[C@@H](c1ncncc1F)[C@](O)(Cn1cncn1)c1ccc(F)cc1F
inactive

Next molecule up: Cc1cc(C2CCCCC2)n(O)c(=O)c1
active

Now try CCN(CC)CCOc1ccc(Nc2ncc3cc(-c4c(Cl)cccc4Cl)c(=O)n(C)c3n2)cc1 .
active

And for CCCCC(CC)COC(=O)C(C#N)=C(c1ccccc1)c1ccccc1 (configuration not stated) ?
inactive

Again, but for Cc1cc2cc3c(C)cc(=O)oc3c(C)c2o1
active

Okay, and c1cnc2cc3c(cc2n1)C1CNCC3C1 ?
inactive

Also check CC(=O)Nc1ccc(O)cc1
inactive

# iterate: CC1Cc2ccccc2N1NC(=O)c1ccc(Cl)c(S(N)(=O)=O)c1 (configuration not stated)
active

Please give the result for Nc1nc(N)c(N=O)c(OCC2CCCCC2)n1 too.
active

Check CC(C)CC(=O)N[C@H](C(=O)N[C@H](C(=O)N[C@@H](CC(C)C)[C@@H](O)CC(=O)N[C@@H](C)C(=O)N[C@@H](CC(C)C)[C@@H](O)CC(=O)O)C(C)C)C(C)C (Isovaleryl-VV[Sta]A[Sta]-OH) too.
inactive

Now this one: CC1=C(C(=O)O)N2C(=O)[C@@H](NC(=O)[C@H](N)C3=CCC=CC3)[C@H]2SC1
inactive

Ok, now COc1ccc(C2(C#N)CCC(C(=O)O)CC2)cc1OC1CCCC1 (configuration not stated)
inactive

Here is the next molecule: S=c1nc[nH]c2nc[nH]c12
active

---

- Tested on: CP256
- assay-info: qHTS profiling for inhibitors of Plasmodium falciparum proliferation (AID 504749);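 also: 0% = DMSO vehicle and full inhibition = artemisinin control; nearly all actives have a fitted effect of over 60% in size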
- recorded-conditions: P. falciparum in erythrocytes, SYBR Green DNA, 72 h; series mostly up to 28.7 µM
Inconclusive results are not listed. Calls of active or inactive are those of the source. The call rests on the fitted dose curve; in most records, active means well fitted inhibition curve with a large enough effect; inconclusive means small, poorly fitted or top-dose-only effect; inactive means flat fitted curve, though single readings scatter.
measured-endpoint: outcome

chemical-structure | assayed-target | measured-endpoint | assay-value
COc1ccc2cc([C@H](C)C(=O)O)ccc2c1 | CP256 | outcome | inactive
Cc1ccc(C)c(OCCCC(C)(C)C(=O)O)c1 | CP256 | outcome | inactive
Nc1cc(C(Cl)=C(Cl)Cl)c(S(N)(=O)=O)cc1S(N)(=O)=O | CP256 | outcome | inactive

---

- assay-info: Quantitative High-Throughput drug screen in 47 multiple myeloma cell lines against the NCATS MIPE library collection: OCIMY7_PLB cell viability assay (AID 1918987); also: nearly all actives have a fitted effect of over 65% in size
- recorded-conditions: OCI-MY7 myeloma viability, CellTiter-Glo ATP, 48 h; series mostly up to 45.8 µM
Records with an inconclusive call do not appear. Activity calls are given as the source filed them. The call rests on the fitted dose curve; in most records, active means well fitted cell-killing curve with a large enough effect; inconclusive means small, poorly fitted or top-dose-only effect, or effect the other way; inactive means no such curve, though single readings can be large or run the other way.
Answer with one of the outcomes given here: Y (active), N (inactive)

Could you check what this test reported for NC(=NCc1ccccc1)NC(=O)c1nc(Cl)c(N)nc1N ?
Y

What would you report for Oc1ccc2ccccc2c1SSc1c(O)ccc2ccccc12 ?
Y

Consider next the compound Nc1ncn([C@H]2C[C@H](O)[C@@H](CO)O2)c(=O)n1 in the same way.
Y

Item: O=C(c1ccccc1)c1ccc2n1CCC2C(=O)O (stereo not drawn)
Y

For CCCCC(CC)COC(=O)C(C#N)=C(c1ccccc1)c1ccccc1 (stereo not drawn) then?
N

Another compound to look at: Cc1ccc(S(=O)(=O)NC(=O)NN2CC3CCCC3C2)cc1 (stereo not drawn)
Y

Here is the next compound: N[C@@H](Cc1cc(I)c(Oc2cc(I)c(O)c(I)c2)c(I)c1)C(=O)O
N

Item: Cc1cccc(CN2CCN(C(c3ccccc3)c3ccc(Cl)cc3)CC2)c1 (stereo not drawn)
Y

Same for Nc1cc(C(Cl)=C(Cl)Cl)c(S(N)(=O)=O)cc1S(N)(=O)=O
Y

And what about the compound O=C(O)c1cc(=O)c2c(OCC(O)COc3cccc4oc(C(=O)O)cc(=O)c34)cccc2o1 ?
N

Input O=C(NCC1CCCCN1)c1cc(OCC(F)(F)F)ccc1OCC(F)(F)F (stereo not drawn)
Y

Can you check Nc1nc(N)c(N=O)c(OCC2CCCCC2)n1 next?
Y

Same again, this time with NCCCCNCCCN
Y

---

- assay-info: qHTS profiling for inhibitors of Plasmodium falciparum (3D7) proliferation (AID 743322);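 also: infected erythrocytes exposed to compound for 72 h before lysis; 100% = DMSO vehicle wells and 0% = 0.29 µM artemisinin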
- recorded-conditions: P. falciparum 3D7 proliferation; at 28.7 µM (top of the series) unless noted
Field: remaining parasite growth % (stronger effect = lower value). Provide a value for each of the molecules that follow.

Any idea what its remaining parasite growth % (stronger effect = lower value) is? The molecule is CN(C)c1ccc2nc3ccc(=[N+](C)C)cc-3sc2c1
1.85% [at 57.5 µM]

Query CCCCN(CCCC)CCC(O)c1cc2c(Cl)cc(Cl)cc2c2cc(C(F)(F)F)ccc12 (stereo not drawn) next
-0.286% [at 9.63 µM]

Repeat with NC(=NCc1ccccc1)NC(=O)c1nc(Cl)c(N)nc1N
-0.258% [at 18.4 µM]
